- testSummary: n-Octanol/water partition coefficient, logP of the compound
- Type: physicochemical
- measurementConditions: n-octanol/water; read-out: logP
Each entry below carries its recorded logP.
Give only the figure.

{"compound": "CCOC(=O)Cc1ccc(OCC(=O)N2CCNCC2)c(OC)c1", "reportedValue": 1.5}
{"compound": "CCCOC(=O)Cc1ccc(OCC(=O)N2CCN(C(=O)OC(C)(C)C)CC2)c(OCC)c1", "reportedValue": 2.3}
{"compound": "CCCOC(=O)Cc1ccc(OCC(=O)N(CC)CC)c(OCC)c1", "reportedValue": 2.8}
{"compound": "CCOC(=O)Cc1ccc(OCC(=O)N2CCN(C(=O)OC(C)(C)C)CC2)c(OCC)c1", "reportedValue": 1.8}

The reported logP of the molecule COc1cc(CC(=O)OC(C)C)ccc1OCC(=O)N1CCCC1 was 1.9

Per the records, this molecule ( CCCOC(=O)Cc1ccc(OCC(=O)N2CCOCC2)c(OCC)c1 ) has logP equal to 1.4

logP in this record for CCOc1cc(CC(=O)OC(C)C)ccc1OCC(=O)N1CCNCC1 : 1.5

Entry CCCOC(=O)Cc1ccc(OCC(=O)N2CCCC2)c(OCC)c1 , logP reported as 2.3

CC(C)c1cccc(C(C)C)c1O yielded logP of 4.2
